The reported numbers originate from patent US7074789B2.

- tested_on: AKT (Homo sapiens, UniProt Q9Y243)
- Construct: Kinases are expressed as either kinase domains or full length constructs; made in house
- Sequence (Q9Y243 whole entry, the tested form may be a part): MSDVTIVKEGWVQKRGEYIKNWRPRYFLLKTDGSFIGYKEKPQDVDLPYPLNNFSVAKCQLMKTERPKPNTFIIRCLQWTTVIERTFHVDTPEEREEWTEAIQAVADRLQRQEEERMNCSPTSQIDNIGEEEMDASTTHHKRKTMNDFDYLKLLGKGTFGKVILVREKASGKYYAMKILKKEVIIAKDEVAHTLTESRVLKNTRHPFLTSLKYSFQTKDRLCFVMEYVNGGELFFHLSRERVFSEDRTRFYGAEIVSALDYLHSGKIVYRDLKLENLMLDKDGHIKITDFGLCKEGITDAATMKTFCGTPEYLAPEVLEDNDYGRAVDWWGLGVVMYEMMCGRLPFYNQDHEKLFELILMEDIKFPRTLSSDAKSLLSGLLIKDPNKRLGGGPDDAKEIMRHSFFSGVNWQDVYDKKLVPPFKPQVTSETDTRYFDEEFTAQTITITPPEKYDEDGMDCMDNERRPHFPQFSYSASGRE
- test_description: Kinase inhibition assay (33P transfer), AKT
- Assay type: biochemical
- condition_details: Table 2, class symbols A-E; read-out: AKT3-1
pIC50: −log10 of the molar value.
measure: pIC50

>  <molecule>
COC(=O)c1ccc(-c2cc(Nc3ncnc(NCCNC(C)=O)n3)[nH]n2)cc1

>  <measure>
pIC50

>  <measured_value>
< 4.94

$$$$
>  <molecule>
COC(=O)c1ccc(-c2cc(Nc3ncnc(NCCCO)n3)[nH]n2)cc1

>  <measure>
pIC50

>  <measured_value>
< 4.91

$$$$
>  <molecule>
COc1ccc(Nc2ncnc(N(C)C3CCN(Cc4ccccc4)C3)n2)cc1OC (centres unmarked)

>  <measure>
pIC50

>  <measured_value>
< 4.97

$$$$
>  <molecule>
COC(=O)c1cccc(Nc2ncnc(-n3c(NCc4ccc(OC)cc4)nc4ccccc43)n2)c1

>  <measure>
pIC50

>  <measured_value>
< 5.03

$$$$
>  <molecule>
COc1ccc(CNc2nc3ccccc3n2-c2ncnc(Nc3cccc(C(=O)O)c3)n2)cc1

>  <measure>
pIC50

>  <measured_value>
5.13 to 5.29

$$$$
>  <molecule>
CN(c1cccc(Cl)c1)c1ncnc(Nc2ccc3nn(C)cc3c2)n1

>  <measure>
pIC50

>  <measured_value>
< 4.91

$$$$

According to the records, this molecule O=C(O)/C=C/c1ccc(Nc2ncnc(Nc3cc(-c4ccco4)[nH]n3)n2)cc1 displays pIC50 of 5.21 to 5.99

COC(=O)c1ccc(-c2cc(Nc3ncnc(NCc4ccccc4F)n3)[nH]n2)cc1 has a reported pIC50 of < 4.97

pIC50 measured on COc1cc(Nc2ncnc(-c3cccnc3Nc3cccc4c3CCCC4)n2)cc(OC)c1OC = < 5.03

The molecule listed as c1ccc(Nc2ncccc2-c2ncnc(Nc3cccc(Cn4ccnn4)c3)n2)cc1 has a reported pIC50 of < 4.97

Kindly note the recorded pIC50 for COc1cc(Nc2ncnc(-c3cccnc3NC3CCN(Cc4ccccc4)CC3)n2)cc(OC)c1OC , which is < 5.07

---

pIC50 by entry:
- tested_on: Kdr (Homo sapiens, UniProt P35968)
- Construct: Kinases are expressed as either kinase domains or full length constructs; made in house
- Sequence (P35968 20-1356, species assumed): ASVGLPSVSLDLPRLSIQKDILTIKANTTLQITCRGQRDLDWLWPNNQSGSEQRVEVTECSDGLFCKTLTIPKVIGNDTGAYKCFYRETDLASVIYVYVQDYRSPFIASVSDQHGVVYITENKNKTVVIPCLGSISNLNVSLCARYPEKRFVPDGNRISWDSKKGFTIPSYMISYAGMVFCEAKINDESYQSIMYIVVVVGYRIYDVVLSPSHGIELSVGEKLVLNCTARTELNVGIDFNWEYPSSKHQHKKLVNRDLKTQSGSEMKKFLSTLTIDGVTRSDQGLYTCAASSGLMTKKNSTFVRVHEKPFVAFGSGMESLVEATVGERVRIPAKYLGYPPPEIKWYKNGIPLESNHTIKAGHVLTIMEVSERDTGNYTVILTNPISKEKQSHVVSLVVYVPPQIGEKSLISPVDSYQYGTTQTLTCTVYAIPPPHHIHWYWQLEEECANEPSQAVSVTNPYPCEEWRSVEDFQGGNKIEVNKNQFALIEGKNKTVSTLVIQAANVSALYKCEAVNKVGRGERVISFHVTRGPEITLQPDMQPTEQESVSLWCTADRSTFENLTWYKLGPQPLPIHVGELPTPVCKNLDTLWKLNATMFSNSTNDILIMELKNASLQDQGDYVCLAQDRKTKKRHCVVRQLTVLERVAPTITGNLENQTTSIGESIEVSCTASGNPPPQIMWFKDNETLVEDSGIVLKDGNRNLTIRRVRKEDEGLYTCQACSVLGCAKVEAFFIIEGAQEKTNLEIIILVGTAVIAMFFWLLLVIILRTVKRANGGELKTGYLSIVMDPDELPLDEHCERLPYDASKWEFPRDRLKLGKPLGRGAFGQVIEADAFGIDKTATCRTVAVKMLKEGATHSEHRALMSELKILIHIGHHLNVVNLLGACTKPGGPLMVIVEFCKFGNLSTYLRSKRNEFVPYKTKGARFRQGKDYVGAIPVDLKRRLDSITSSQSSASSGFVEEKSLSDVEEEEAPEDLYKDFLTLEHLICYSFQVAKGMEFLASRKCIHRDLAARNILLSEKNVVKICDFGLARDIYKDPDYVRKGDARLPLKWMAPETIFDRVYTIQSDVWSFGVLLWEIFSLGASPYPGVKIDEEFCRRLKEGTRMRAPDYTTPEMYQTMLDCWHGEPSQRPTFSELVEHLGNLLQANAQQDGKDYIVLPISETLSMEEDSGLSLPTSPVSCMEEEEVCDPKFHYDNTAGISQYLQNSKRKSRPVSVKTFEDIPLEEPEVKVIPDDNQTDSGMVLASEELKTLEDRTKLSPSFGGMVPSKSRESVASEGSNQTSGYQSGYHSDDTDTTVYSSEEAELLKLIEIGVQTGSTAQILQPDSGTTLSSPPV
- test_description: Kinase inhibition assay (33P transfer), Kdr
- Type: biochemical
- condition_details: read-out: KDR-1
pIC50: −log10 of the molar value.

Reference set (5 entries):
>  <compound>
COc1cc(Nc2ncnc(-n3c(Nc4cccc5cccnc45)nc4ccccc43)n2)cc(OC)c1OC [Compound 588]

>  <tested_on>
Kdr (Homo sapiens, UniProt P35968)

>  <pIC50>
5.17 to 5.34

$$$$
>  <compound>
COc1ccc(Cl)cc1Nc1ncnc(Nc2cc(OC)c(OC)c(OC)c2)n1 [Compound 627]

>  <tested_on>
Kdr (Homo sapiens, UniProt P35968)

>  <pIC50>
5.24 to 6.02

$$$$
>  <compound>
COc1ccc(N(C)c2ncnc(-n3c(N)nc4ccccc43)n2)cc1 [Compound 663]

>  <tested_on>
Kdr (Homo sapiens, UniProt P35968)

>  <pIC50>
5.00 to 5.16

$$$$
>  <compound>
O=c1[nH]c2ccccc2n1-c1ncnc(Nc2ccc(O)cc2)n1 [Compound 682]

>  <tested_on>
Kdr (Homo sapiens, UniProt P35968)

>  <pIC50>
5.13 to 5.90

$$$$
>  <compound>
CN(c1cccc(Cl)c1)c1ncnc(N[C@@H]2CCN(Cc3ccccc3)C2)n1 [Compound 755]

>  <tested_on>
Kdr (Homo sapiens, UniProt P35968)

>  <pIC50>
< 4.94

$$$$

According to the records, this compound CN(c1cccc(Cl)c1)c1ncnc(NCCN2CCCCC2)n1 [Compound 740] displays pIC50 of < 4.89

Reported pIC50 of COc1cc(Nc2ncnc(-n3c(NCc4ccc(OC(F)(F)F)cc4)nc4ccccc43)n2)cc(OC)c1OC [Compound 571] : < 5.10

Record Cc1ccc2c(c1)CCCN2c1ncnc(NCCCn2ccnc2)n1 [Compound 772] . Reported pIC50: < 4.89
